Experiment: NCI Yeast Anticancer Drug Screen. Data for the sgs1 mgt1 strain (AID 161);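 note: 0% = growth of cultures given vehicle only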
Conditions: S. cerevisiae sgs1 mgt1 strain, at 50.0 µM, active compounds read high
Procedure: Growth inhibition of yeast strains with defined genetic alterations is measured as a screen for potential anti-cancer activity. Selected strains with alterations in DNA damage repair or cell cycle control were exposed to compounds and growth inhibition was measured relative to vehicle treated controls. The strain used in this assay is sgs1 mgt1
This is part of a sample that, as a whole, favours compounds with a hit. Of some 79,000 tested, about 15% had one in any assay.
// growth inhibition lookup, one value per entry
The response must be a number in % with no trailing unit.

Answered cases to consult:
INSERT INTO measurements (compound, reported_endpoint, unit_info, assay_result) VALUES
  ('CCCCCCCCCCCCC#N', 'growth inhibition', '%', -1.15),
  ('CC1(C)NC(=S)N(O)C1(C)C', 'growth inhibition', '%', -19.8),
  ('CC1(C)CC2(CC(C)(C)N1O)NC(=O)OC2=O', 'growth inhibition', '%', -1.05);

Recorded growth inhibition of CC(=O)OCC1OC(OC(C)=O)C(NC(=O)CN(Cc2ccccc2)S(C)(=O)=O)C(OC(C)=O)C1OC(C)=O (stereo unspecified) , please.
-16.1

Recorded growth inhibition of `Cc1ccc(S(=O)(=O)N/N=C2\CC[C@H]3[C@@H]4CC=C5C[C@@H](O)CC[C@]5(C)[C@H]4CC[C@]23C)cc1` , please.
76.3

Recorded growth inhibition of `CC(=O)/C=C/c1ccc(C)cc1` , please.
8.75

Recorded growth inhibition of CC(=O)OC1CC[C@@]2(C)C(CC[C@]3(C)C2CC=C2[C@@H]4C(C)[C@H](C)CCC4(C)CCC23C)[C@@]1(C)C(=O)O (stereo partly specified) , please.
16.4

Recorded growth inhibition of `CC1(C)CN(CCO)C(C)(C)CN1` , please.
14.9

Recorded growth inhibition of CC(=O)OCC1OC(n2ccc(NC(=O)Nc3ccn(C4OC(COC(C)=O)C(OC(C)=O)C4OC(C)=O)c(=O)n3)nc2=O)C(OC(C)=O)C1OC(C)=O (stereo unspecified) , please.
8.25

Recorded growth inhibition of COC(=O)CC1CSCC1=O (stereo unspecified) , please.
5.95

Recorded growth inhibition of COC(=O)C(O)C(O)C(O)C(O)C(=O)OC (stereo unspecified) , please.
10.8
